biological target: HRgpA-6H (Porphyromonas gingivalis) (UniProt P28784); experiment: ELISA, coated HRgpA-6H

{"BINDER": "KB001 mouse Fab VL S57N (Fab, V domains shown) VH: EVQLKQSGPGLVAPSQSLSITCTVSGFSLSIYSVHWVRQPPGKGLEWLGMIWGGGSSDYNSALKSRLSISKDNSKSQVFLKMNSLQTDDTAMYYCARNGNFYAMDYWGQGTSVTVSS VL: QIVLTQSPAIMSASLGERVTMTCTASSSVSSSFLHWYQQKPGSSPQLWIYSTSNLANGVPARFSGSGSGTSYSLTISSMEAEDAATYYCHQYHHSPYIYTFGGGTKLEIK", "OD450 nm": 0.857}
{"BINDER": "KB001 mouse Fab VL V29I (Fab, V domains shown) VH: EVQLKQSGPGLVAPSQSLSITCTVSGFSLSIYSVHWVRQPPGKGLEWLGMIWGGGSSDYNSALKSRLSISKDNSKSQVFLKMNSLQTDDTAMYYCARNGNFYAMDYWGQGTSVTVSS VL: QIVLTQSPAIMSASLGERVTMTCTASSSISSSFLHWYQQKPGSSPQLWIYSTSNLASGVPARFSGSGSGTSYSLTISSMEAEDAATYYCHQYHHSPYIYTFGGGTKLEIK", "OD450 nm": 0.853}
{"BINDER": "KB001 mouse Fab VL L55K (Fab, V domains shown) VH: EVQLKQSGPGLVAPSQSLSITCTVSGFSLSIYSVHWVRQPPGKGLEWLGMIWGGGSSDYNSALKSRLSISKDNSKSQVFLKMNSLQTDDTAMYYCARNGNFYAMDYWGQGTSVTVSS VL: QIVLTQSPAIMSASLGERVTMTCTASSSVSSSFLHWYQQKPGSSPQLWIYSTSNKASGVPARFSGSGSGTSYSLTISSMEAEDAATYYCHQYHHSPYIYTFGGGTKLEIK", "OD450 nm": 0.769}
